Assay: The drug is tested on the gut metagenome community of P-01 with ENA study accession number: PRJEB31790 for biotransformation under microaerobic condition. The drug concentrations were measured over 7 timepoints collected between 0 and 12 hours of incubation by liquid-chromatography-coupled mass spectrometry (LC–MS)
Assay type: ADME
Set-up: dose 5 uM, timepoint 0, 0.75, 1.5, 3, 6, 9, 12 hours
Settings: 5 µM
EXPERIMENTAL ENDPOINT: Bacterial Biotransformation

MOLECULE: COc1c(C)c2c(c(O)c1C/C=C(\C)CCC(=O)OCCN1CCOCC1)C(=O)OC2 [MYCOPHENOLATE MOFETIL]
EXPERIMENTAL ENDPOINT: Bacterial Biotransformation
REPORTED RESULT: Compound metabolized
//
MOLECULE: C[C@]12C=CC(=O)C=C1CC[C@@H]1[C@@H]2[C@@H](O)C[C@@]2(C)[C@H]1CC[C@]2(O)C(=O)CO
EXPERIMENTAL ENDPOINT: Bacterial Biotransformation
REPORTED RESULT: Compound metabolized

----------
Assay: The drug is tested on Streptococcus salivarius strain: DSM20560 for biotransformation under anaerobic condition. The drug concentrations were measured over 6 timepoints collected between 0 and 12 hours of incubation by liquid-chromatography-coupled mass spectrometry (LC–MS)
Format: ADME
Parameters: dose 5 uM, timepoint 0, 1.5, 3, 6, 9, 12 hours
Conditions: 5 µM
EXPERIMENTAL ENDPOINT: Bacterial Biotransformation

// solved cases for Bacterial Biotransformation follow
SMILES: CCOC(=O)[C@H](CCc1ccccc1)N[C@@H](C)C(=O)N1[C@H](C(=O)O)C[C@@H]2CCC[C@@H]21
Bacterial Biotransformation: Compound NOT metabolized

SMILES: COc1ccc([C@@H]2Sc3ccccc3N(CCN(C)C)C(=O)[C@@H]2OC(C)=O)cc1
Bacterial Biotransformation: Compound NOT metabolized

SMILES: CCOc1nc2cccc(C(=O)O)c2n1Cc1ccc(-c2ccccc2-c2nnn[nH]2)cc1
Bacterial Biotransformation: Compound NOT metabolized

SMILES: CCC(C)(C)C(=O)O[C@H]1C[C@@H](C)C=C2C=C[C@H](C)[C@H](CC[C@@H]3C[C@@H](O)CC(=O)O3)[C@H]21
Bacterial Biotransformation: Compound NOT metabolized

SMILES: C[C@@H]1C[C@H]2[C@@H]3CCC4=CC(=O)C=C[C@]4(C)[C@@]3(F)[C@@H](O)C[C@]2(C)[C@@]1(O)C(=O)CO
Bacterial Biotransformation: Compound NOT metabolized

# input for lookup
The recorded Bacterial Biotransformation for entry C[C@H]1C[C@H]2[C@@H]3CCC4=CC(=O)C=C[C@]4(C)[C@@]3(F)[C@@H](O)C[C@]2(C)[C@@]1(O)C(=O)CO equals Compound NOT metabolized

----------
Experiment: The drug is tested on Clostridium scindens strain: DSM5676 for biotransformation under anaerobic condition. The drug concentrations were measured over 6 timepoints collected between 0 and 12 hours of incubation by liquid-chromatography-coupled mass spectrometry (LC–MS)
Type: ADME
Parameters: dose 5 uM, timepoint 0, 1.5, 3, 6, 9, 12 hours
Details: 5 µM
EXPERIMENTAL ENDPOINT: Bacterial Biotransformation

Please review the following examples before continuing.
COMPOUND: COc1c(C)c2c(c(O)c1C/C=C(\C)CCC(=O)OCCN1CCOCC1)C(=O)OC2 [MYCOPHENOLATE MOFETIL]
REPORTED RESULT: Compound NOT metabolized
--
COMPOUND: CNC(=C[N+](=O)[O-])NCCSCc1ccc(CN(C)C)o1 [RANITIDINE]
REPORTED RESULT: Compound NOT metabolized
--
COMPOUND: C[C@H]1C[C@H]2[C@@H]3CCC4=CC(=O)C=C[C@]4(C)[C@@]3(F)[C@@H](O)C[C@]2(C)[C@@]1(O)C(=O)CO [BETAMETHASONE]
REPORTED RESULT: Compound metabolized
--
COMPOUND: CCC(C)(C)C(=O)O[C@H]1C[C@@H](C)C=C2C=C[C@H](C)[C@H](CC[C@@H]3C[C@@H](O)CC(=O)O3)[C@H]21 [SIMVASTATIN]
REPORTED RESULT: Compound metabolized
--
COMPOUND: CO[C@H]1C[C@@H]2CC[C@@H](C)[C@@](O)(O2)C(=O)C(=O)N2CCCC[C@H]2C(=O)O[C@H]([C@H](C)C[C@@H]2CC[C@@H](OCCO)[C@H](OC)C2)CC(=O)[C@H](C)/C=C(\C)[C@@H](O)[C@@H](OC)C(=O)[C@H](C)C[C@H](C)/C=C/C=C/C=C/1C [EVEROLIMUS]
REPORTED RESULT: Compound metabolized

Per the record, C[C@]12CCC(=O)C=C1CC[C@@H]1[C@@H]2C(=O)C[C@@]2(C)[C@H]1CC[C@]2(O)C(=O)CO [CORTISONE] has Bacterial Biotransformation of Compound metabolized

GET /value?item= CCCC1O[C@@H]2C[C@H]3[C@@H]4CCC5=CC(=O)C=C[C@]5(C)[C@H]4[C@@H](O)C[C@]3(C)[C@]2(C(=O)CO)O1 (stereo partly drawn) [BUDESONIDE] &field=Bacterial Biotransformation returns Compound NOT metabolized

Given item CC(C)NCC(O)COc1ccc(CC(N)=O)cc1 (stereo not drawn) [ATENOLOL] , the value recorded as its Bacterial Biotransformation is Compound NOT metabolized
